Attribution: patent US20250019437A1

// values below are reported Binding Signal (fold over 6E7 parental antibody)
target_under_test: T1, human TREM2 (triggering receptor expressed on myeloid cells 2) (human) (UniProt Q9NZC2)
T1 sequence (looked up): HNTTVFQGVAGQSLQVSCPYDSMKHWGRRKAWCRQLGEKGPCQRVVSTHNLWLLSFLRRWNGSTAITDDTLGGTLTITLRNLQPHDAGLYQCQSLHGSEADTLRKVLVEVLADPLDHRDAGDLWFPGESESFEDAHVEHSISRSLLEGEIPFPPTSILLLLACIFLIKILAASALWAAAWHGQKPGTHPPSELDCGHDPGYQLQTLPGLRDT
experimental_details: 2nd screen, 10 nM Ab
property_label: Binding Signal (fold over 6E7 parental antibody) (fold)

binder	display_unit	readout_number
6E7 antibody affinity modulation variant V49 (antibody, V domains shown) VH: EVQLVQSGAEVKKPGESLKISCKGSGYSFNSYWIAWVRQMPGKGLEWMGTIYPGDSDTRLSPSFQGQVTISADKSISTAYLQWSSLKASDTAMYFCARSRTFYYDSSDYFDYWGQGTLVTVSS VL: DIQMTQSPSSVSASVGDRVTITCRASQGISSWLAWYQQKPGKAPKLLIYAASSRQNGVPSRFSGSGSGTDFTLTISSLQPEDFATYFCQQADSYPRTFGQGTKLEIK	fold	6.58
6E7 antibody affinity modulation variant V50 (antibody, V domains shown) VH: EVQLVQSGAEVKKPGESLKISCKGSGYSFGSYWIAWVRQMPGKGLEWMGVIYPGDSDTRYSPSFQGQVTISADKSISTAYLQWSSLKASDTAMYFCARQRTFYYDSSDYLDYWGQGTLVTVSS VL: DIQMTQSPSSVSASVGDRVTITCRASQGISSWLAWYQQKPGKAPKLLIYAASSRQNGVPSRFSGSGSGTDFTLTISSLQPEDFATYFCQQADSLPRTFGQGTKLEIK	fold	4.16
6E7 antibody affinity modulation variant V86 (antibody, V domains shown) VH: EVQLVQSGAEVKKPGESLKISCKGSGYSFGSYWLAWVRQMPGKGLEWMGIIYPGDSDTRYSPSFEGQVTISADKSISTAYLQWSSLKASDTAMYFCARSRTFYYDSSDYFDYWGQGTLVTVSS VL: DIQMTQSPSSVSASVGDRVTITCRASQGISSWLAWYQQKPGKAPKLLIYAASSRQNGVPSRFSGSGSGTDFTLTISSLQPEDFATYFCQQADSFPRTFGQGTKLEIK	fold	5.02
6E7 antibody affinity modulation variant V26 (antibody, V domains shown) VH: EVQLVQSGAEVKKPGESLKISCKGSGYSFTSYWIGWVRQMPGKGLEWMGTIYPGDSDTRYSPSFQGQVTISADKSISTAYLQWSSLKASDTAMYFCARQRTMYYDSSDYFDAWGQGTLVTVSS VL: DIQMTQSPSSVSASVGDRVTITCRASQGISSWLAWYQQKPGKAPKLLIYAASSLQRGVPSRFSGSGSGTDFTLTISSLQPEDFATYFCQQADSYPRTFGQGTKLEIK	fold	3.47
6E7 antibody affinity modulation variant V76 (antibody, V domains shown) VH: EVQLVQSGAEVKKPGESLKISCKGSGYSFGSYWIAWVRQMPGKGLEWMGIIYPGDSDTRYSPEFQGQVTISADKSISTAYLQWSSLKASDTAMYFCARQRTFYYDSSDYSDYWGQGTLVTVSS VL: DIQMTQSPSSVSASVGDRVTITCRASQGISSWLAWYQQKPGKAPKLLIYAASSLQKGVPSRFSGSGSGRDFTLTISSLQPEDFATYFCQQADSFPRTFGQGTKLEIK	fold	4.93
6E7 antibody affinity modulation variant V24 (antibody, V domains shown) VH: EVQLVQSGAEVKKPGESLKISCKGSGYSFTSYWIAWVRQMPGKGLEWMGIIYPGDSDVRYSPSFQGQVTISADKSISTAYLQWSSLKASDTAMYFCARSRTFYYDSSDYFDYWGQGTLVTVSS VL: DIQMTQSPSSVSASVGDRVTITCRASQGISSWLAWYQQKPGKAPKLLIYAASSLQKGVPSRFSGSGSGTDFTLTISSLQPEDFATYFCQQADSFPHTFGQGTKLEIK	fold	2.9
6E7 antibody affinity modulation variant V64 (antibody, V domains shown) VH: EVQLVQSGAEVKKPGESLKISCKGSGYSFQSYWIAWVRQMPGKGLEWMGIIYPGDSDTRYSPSFQGQVTISADKSISTAYLQWSSLKASDTAMYFCARGRTFYYDSSDYFDYWGQGTLVTVSS VL: DIQMTQSPSSVSASVGDRVTITCRASQGISSWLAWYQQKPGKAPKLLIYAASSLANGVPSRFSGSGSGTDFTLTISSLQPEDFATYFCQQADSYPRTFGQGTKLEIK	fold	5.48
6E7 antibody affinity modulation variant V62 (antibody, V domains shown) VH: EVQLVQSGAEVKKPGESLKISCKGSGYSFGSYWIAWVRQMPGKGLEWMGIIYPGDSDTRYAPSFQGQVTISADKSISTAYLQWSSLKASDTAMYFCARQRTFYYDSSGYFDYWGQGTLVTVSS VL: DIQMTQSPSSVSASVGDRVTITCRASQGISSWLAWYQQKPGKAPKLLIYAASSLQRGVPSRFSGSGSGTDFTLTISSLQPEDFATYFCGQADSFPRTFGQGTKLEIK	fold	2.89
6E7 antibody affinity modulation variant V40 (antibody, V domains shown) VH: EVQLVQSGAEVKKPGESLKISCKGSGYSFGSYWIAWVRQMPGKGLEWMGIIYPGDSDVRYSPSFQGQVTISADKSISTAYLQWSSLKASDTAMYFCARQRTFYYDSSDYSDYWGQGTLVTVSS VL: DIQMTQSPSSVSASVGDRVTITCRASQGISSWLAWYQQKPGKAPKLLIYAASSLQLGVPSRFSGSGSGTDFTLTISSLQPEDFATYFCQQADRFPRTFGQGTKLEIK	fold	4.16
6E7 antibody affinity modulation variant V53 (antibody, V domains shown) VH: EVQLVQSGAEVKKPGESLKISCKGSGYSFTSYWIAWVRQMPGKGLEWMGIIYPGDSDTRYSPHFQGQVTISADKSISTAYLQWSSLKASDTAMYFCARQRTFYYDSSDYFDYWGQGTLVTVSS VL: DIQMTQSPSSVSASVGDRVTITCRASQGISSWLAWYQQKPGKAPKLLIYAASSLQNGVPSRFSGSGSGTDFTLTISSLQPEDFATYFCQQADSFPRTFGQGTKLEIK	fold	1.17
